Test: Peptide stability in simulated gastric fluid (SGF)
Type: in vitro ADME
Conditions: pig, simulated gastric fluid (SGF) with porcine pepsin, Table 3-3, porcine pepsin, pH 1.2, 37° C., 10 μM, 1 h, read-out: SGF (% remaining 1 h)
*1 amine or outer side, *2 acyl side, *3 side chain or, on linkers, in order; H or OH if unused. Where a SMILES comes first, the peptide text is derived from it. Bridges are numbered along the chain shown (N, C = ends). [ ]: non-standard residue; d: D form. Phe(4-NH2) = Nc1ccc(C[C@H](N)C(=O)O)cc1; 2Nal = N[C@@H](Cc1ccc2ccccc2c1)C(=O)O; AEF = NCCOc1ccc(C[C@H](N)C(=O)O)cc1; αMeR = C[C@](N)(CCCNC(=N)N)C(=O)O; αMeL = CC(C)C[C@](C)(N)C(=O)O; CH2COCH2 = O=C(C[*:1])C[*:2]; 3Amb = NCc1cccc(C(=O)O)c1
Examples of compounds with documented remaining at 1 h, 10 μM follow.
Units required after the number.

Assign remaining at 1 h, 10 μM to the following record: CC(C)C[C@]1(C)NC(=O)[C@H](Cc2ccc3ccccc3c2)NC(=O)[C@H](Cc2ccc(OCCN)cc2)NC(=O)[C@@H]2CSCC(=O)CSC[C@H](NC(=O)[C@H](CO)NC(=O)c3cccc(c3)CNC(=O)CC[C@@H](C(=O)N[C@@](C)(CCCNC(=N)N)C(N)=O)NC1=O)C(=O)N[C@@H](Cc1c[nH]c3ccccc13)C(=O)N[C@@H](CCC(N)=O)C(=O)N2 [Compound 42] ([3Amb]SCWQC[AEF][2Nal][αMeL]E[αMeR]-NH2; linker 3-6 via CH2COCH2; lactam N-10)
90%

State its remaining at 1 h, 10 μM for this compound: CC(C)C[C@H]1NC(=O)[C@H](Cc2ccc3ccccc3c2)NC(=O)[C@H](Cc2ccc(OCCN)cc2)NC(=O)[C@@H]2CSCC(=O)CSC[C@H](NC(=O)[C@H](CO)NC(=O)c3cccc(c3)CNC(=O)CC[C@@H](C(=O)N[C@@H](Cc3ccc(O)cc3)C(N)=O)NC1=O)C(=O)N[C@@H](Cc1c[nH]c3ccccc13)C(=O)N[C@@H](CCC(N)=O)C(=O)N2 [Compound 46] ([3Amb]SCWQC[AEF][2Nal][dL]EY-NH2; linker 3-6 via CH2COCH2; lactam N-10)
83%

Given CC(C)C[C@]1(C)NC(=O)[C@H](Cc2ccc3ccccc3c2)NC(=O)[C@H](Cc2ccc(OCCN)cc2)NC(=O)[C@@H]2CSCC(=O)CSC[C@H](NC(=O)[C@H](CO)NC(=O)c3cccc(c3)CNC(=O)CC[C@@H](C(=O)N[C@@H](Cc3ccc(N)cc3)C(N)=O)NC1=O)C(=O)N[C@@H](Cc1c[nH]c3ccccc13)C(=O)N[C@@H](CCC(N)=O)C(=O)N2 [Compound 45] ([3Amb]SCWQC[AEF][2Nal][αMeL]E[Phe(4-NH2)]-NH2; linker 3-6 via CH2COCH2; lactam N-10) , respond with its remaining at 1 h, 10 μM.
76%

State its remaining at 1 h, 10 μM: CC(=O)N[C@H]1CCSC[C@@H](C(=O)N[C@@H](Cc2ccc(OCCN)cc2)C(=O)N[C@@H](Cc2c[nH]c3ccccc23)C(=O)N[C@@](C)(CCCCN)C(=O)N[C@@H](CCC(=O)O)C(=O)N[C@@H](CC(N)=O)C(=O)NCC(N)=O)NC(=O)[C@H](CCC(N)=O)NC(=O)[C@H](Cc2c[nH]c3ccccc23)NC(=O)[C@H]([C@@H](C)O)NC(=O)[C@H](CCC(N)=O)NC1=O [Compound C, reference compound]
100%

Provide only the value of recorded remaining at 1 h, 10 μM for CC(=O)N[C@@H](CC(=O)O)C(=O)N[C@H]1CCC(=O)NCCCC[C@@H](C(=O)N[C@@H](CCC(=O)O)C(=O)N[C@@H](CC(N)=O)C(=O)NCC(N)=O)NC(=O)[C@](C)(CC(C)C)NC(=O)[C@H](Cc2ccc3ccccc3c2)NC(=O)[C@H](Cc2c[nH]c3ccccc23)NC(=O)[C@@H]2CSCC(=O)CSC[C@H](NC(=O)[C@H](CO)NC1=O)C(=O)N[C@@H](Cc1c[nH]c3ccccc13)C(=O)N[C@@H](CCC(N)=O)C(=O)N2 [Compound 58] (Ac-DESCWQCW[2Nal][αMeL]KENG-NH2; lactam 2-11; linker 4-7 via CH2COCH2)
61%

Cited source: patent US20250154198A1
